System: Proteus mirabilis PCM 543
assay text: MBFIC assay (biofilm formation inhibition, resazurin)
Assay type: cell-based
condition: polystyrene plates (PS), 96-well, ca. 5 × 10^8 CFU/mL in MHB II, 37 °C, 18 h, visual, triplicate
Procedure: To determine the inhibitory effect of antimicrobials on the formation of biofilm on hydrophobic surfaces, the bacterial suspensions of strains (initial inoculum of ca. 5 × 10^8 CFU/mL in MHB II medium supplemented with antimicrobials) were cultured on 96-well PS at 37 °C for 18 h under aerobic conditions. […] Resazurin (final concentration per sample = 0.005%) was applied as a cell viability reagent for reading the results. […]
Where a SMILES comes first, the peptide text is derived from it. Bridges are numbered along the chain shown (N, C = ends). Roman numbers before positions name the chains, in order. The star is where a group is joined. Palmitoyl = CCCCCCCCCCCCCCCC(=O)*; Myristoyl = CCCCCCCCCCCCCC(=O)*; Lauroyl = CCCCCCCCCCCC(=O)*
Measured MBFIC P. mirabilis, PS, listed per entry.
assay metric: MBFIC P. mirabilis, PS

CCCCCCCCCCCCCCCC(=O)N[C@@H](CCCCN)C(=O)N[C@@H](CCCCN)C(=O)N[C@@H](CSSC[C@H](NC(=O)[C@H](CCCCN)NC(=O)[C@H](CCCCN)NC(=O)CCCCCCCCCCCCCCC)C(N)=O)C(N)=O [Lipopeptide 6, C16-KKC-NH2] (I: Palmitoyl-Lys-Lys-Cys-NH2 / II: Palmitoyl-Lys-Lys-Cys-NH2; disulfide I:3-II:3) : >512/512 μg/mL
CCCCCCCCCCCC(=O)N[C@@H](CCCCN)C(=O)N[C@@H](CCCNC(=N)N)C(N)=O [Lipopeptide 2, C12-KR-NH2] (Lauroyl-Lys-Arg-NH2) : >512/512 μg/mL
CCCCCCCCCCCCCC(=O)N[C@@H](CCCCN)C(=O)N[C@@H](CCCCN)C(=O)N[C@@H](CSSC[C@H](NC(=O)[C@H](CCCCN)NC(=O)[C@H](CCCCN)NC(=O)CCCCCCCCCCCCC)C(N)=O)C(N)=O [Lipopeptide 3, C14-KKC-NH2] (I: Myristoyl-Lys-Lys-Cys-NH2 / II: Myristoyl-Lys-Lys-Cys-NH2; disulfide I:3-II:3) : 512/512 μg/mL
CCCCCCCCCCCCCCCC(=O)N[C@@H](CCCCN)C(=O)NCC(=O)N[C@@H](CCCCN)C(N)=O [Lipopeptide 5, C16-KGK-NH2] (Palmitoyl-Lys-Gly-Lys-NH2) : >512/512 μg/mL
CCCCCCCCCCCCCC(=O)N[C@@H](CCCCN)C(=O)N[C@@H](CCCNC(=N)N)C(N)=O [Lipopeptide 4, C14-KR-NH2] (Myristoyl-Lys-Arg-NH2) : 512/>512 μg/mL

---

Tested on: Proteus mirabilis PCM 543
assay text: MBFIC assay (biofilm formation inhibition, resazurin)
Type: cell-based
condition: contact lenses (CL, Etafilcon A hydrogel) in 24-well plates, ca. 5 × 10^8 CFU/mL in MHB II, 37 °C, 18 h, visual, triplicate
Protocol: To determine the inhibitory effect of antimicrobials on the formation of biofilm on hydrophobic surfaces, the bacterial suspensions of strains (initial inoculum of ca. 5 × 10^8 CFU/mL in MHB II medium supplemented with antimicrobials) were cultured on 96-well PS at 37 °C for 18 h under aerobic conditions. […] Resazurin (final concentration per sample = 0.005%) was applied as a cell viability reagent for reading the results. […]
Where a SMILES comes first, the peptide text is derived from it. Bridges are numbered along the chain shown (N, C = ends). Roman numbers before positions name the chains, in order. The star is where a group is joined. Palmitoyl = CCCCCCCCCCCCCCCC(=O)*; Myristoyl = CCCCCCCCCCCCCC(=O)*; Lauroyl = CCCCCCCCCCCC(=O)*
assay metric: MBFIC P. mirabilis, CL

CCCCCCCCCCCC(=O)N[C@@H](CCCCN)C(=O)N[C@@H](CCCNC(=N)N)C(N)=O [Lipopeptide 2, C12-KR-NH2] (Lauroyl-Lys-Arg-NH2) : >512/512 μg/mL
CCCCCCCCCCCCCC(=O)N[C@@H](CCCCN)C(=O)N[C@@H](CCCNC(=N)N)C(N)=O [Lipopeptide 4, C14-KR-NH2] (Myristoyl-Lys-Arg-NH2) : 512/>512 μg/mL
CCCCCCCCCCCCCCCC(=O)N[C@@H](CCCCN)C(=O)N[C@@H](CCCCN)C(=O)N[C@@H](CSSC[C@H](NC(=O)[C@H](CCCCN)NC(=O)[C@H](CCCCN)NC(=O)CCCCCCCCCCCCCCC)C(N)=O)C(N)=O [Lipopeptide 6, C16-KKC-NH2] (I: Palmitoyl-Lys-Lys-Cys-NH2 / II: Palmitoyl-Lys-Lys-Cys-NH2; disulfide I:3-II:3) : >512/512 μg/mL
CCCCCCCCCCCC(=O)N[C@@H](CCCCN)C(=O)N[C@@H](CCCCN)C(=O)N[C@@H](CSSC[C@H](NC(=O)[C@H](CCCCN)NC(=O)[C@H](CCCCN)NC(=O)CCCCCCCCCCC)C(N)=O)C(N)=O [Lipopeptide 1, C12-KKC-NH2] (I: Lauroyl-Lys-Lys-Cys-NH2 / II: Lauroyl-Lys-Lys-Cys-NH2; disulfide I:3-II:3) : >512/>512 μg/mL
